Target: JAK1 (Homo sapiens, UniProt P23458)
Construct: made in house; host or cells: SF9 insect cells (baculovirus)
Sequence (P23458 852-1154): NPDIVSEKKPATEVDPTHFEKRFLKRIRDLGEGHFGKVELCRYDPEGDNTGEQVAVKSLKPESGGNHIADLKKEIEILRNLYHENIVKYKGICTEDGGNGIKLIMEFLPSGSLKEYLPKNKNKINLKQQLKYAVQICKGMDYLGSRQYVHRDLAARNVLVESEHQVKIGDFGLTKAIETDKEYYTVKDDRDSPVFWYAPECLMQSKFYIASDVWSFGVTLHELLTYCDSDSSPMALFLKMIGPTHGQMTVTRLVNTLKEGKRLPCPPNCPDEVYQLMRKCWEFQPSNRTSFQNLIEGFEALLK
Assay: JAK1 inhibition (Table 4)
Format: biochemical
Conditions: read-out: JAK1 Ki
experimental.readout: log10 Ki (log10 of the value in µM)
On a log10 scale: recorded Ki, unit µM.

Check out these entries, answers already filled in.
| molecule | target.or.test.system | log10 Ki |
| --- | --- | --- |
| Cn1cc(CCc2nc3cnc4[nH]ccc4c3n2C2CCN(CCC#N)CC2)cn1 [Example 412] | JAK1 (Homo sapiens, UniProt P23458) | -1.67 |
| c1nc2c([nH]1)CCC(n1cnc3cnc4[nH]ccc4c31)C2 (racemic) [Example 707] | JAK1 (Homo sapiens, UniProt P23458) | -1.13 |
| CC1(n2nnc3cnc4[nH]ccc4c32)CCN(CCC#N)CC1 [Example 582] | JAK1 (Homo sapiens, UniProt P23458) | -0.99 |
| Cc1nc2cnc3[nH]ccc3c2n1C1CCN(CC(O)(C(F)(F)F)C(F)(F)F)CC1 [Example 354] | JAK1 (Homo sapiens, UniProt P23458) | -2.60 |
| O=C1CC(n2cnc3cnc4[nH]ccc4c32)CCN1Cc1ccccc1 (racemic) [Example 129] | JAK1 (Homo sapiens, UniProt P23458) | -1.36 |

The molecule listed as c1ccc(CN2CCC[C@@H](n3nnc4cnc5[nH]ccc5c43)C2)cc1 [Example 18] shows log10 Ki equal to -1.61

The molecule listed as Cc1nc2cnc3[nH]ccc3c2n1[C@@H](C)CO [Example 422] shows log10 Ki equal to -0.85

The molecule listed as OC1CCCC(n2cnc3cnc4[nH]ccc4c32)C1 (single isomer, unassigned) [Example 561] shows log10 Ki equal to -2.14

The molecule listed as Cc1noc(CN2CC[C@H](n3c([C@@H](C)O)nc4cnc5[nH]ccc5c43)C2)n1 [Example 935] shows log10 Ki equal to -1.18

---

Molecular target: JAK3 (Homo sapiens, UniProt P52333)
Construct: made in house; host or cells: SF9 insect cells (baculovirus)
Sequence (P52333 783-1124): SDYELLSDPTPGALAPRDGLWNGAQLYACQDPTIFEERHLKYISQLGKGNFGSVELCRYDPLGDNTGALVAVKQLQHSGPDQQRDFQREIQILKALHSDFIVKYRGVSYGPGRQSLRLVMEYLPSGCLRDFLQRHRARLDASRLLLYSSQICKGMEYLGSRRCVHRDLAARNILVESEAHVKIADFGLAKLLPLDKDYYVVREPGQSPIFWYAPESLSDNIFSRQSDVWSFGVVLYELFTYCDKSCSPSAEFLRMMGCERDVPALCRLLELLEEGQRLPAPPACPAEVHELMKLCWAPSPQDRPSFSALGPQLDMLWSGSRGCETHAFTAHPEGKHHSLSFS
Experiment: JAK3 inhibition (Table 4)
Type: biochemical
Conditions: read-out: JAK3 Ki
experimental.readout: Ki (nM)
Give the value, in units of nM, as a plain number.

Check out these entries, answers already filled in.
| compound | Ki, nM |
| --- | --- |
| O=C(Cc1nc2cnc3[nH]ccc3c2n1C1CC2CCC1C2)N1CCC(O)CC1 (racemic) [Example 869] | 8.69 |
| Cc1nc2cnc3[nH]ccc3c2n1C1CCC(NC(=O)CC(F)(F)F)C1 (racemic) [Example 730] | 1.87 |
| c1cncc(CN2CCC[C@@H](n3cnc4cnc5[nH]ccc5c43)C2)c1 [Example 39] | 182 |

Now, please, on to the next compound.
Record CCC(COC)n1c(C(C)O)nc2cnc3[nH]ccc3c21 (single isomer, unassigned) [Example 182a] has JAK3 (Homo sapiens, UniProt P52333) Ki equal to 351

---

Molecular target: JAK2 (Homo sapiens, UniProt O60674)
Construct: made in house; host or cells: SF9 insect cells (baculovirus)
Sequence (O60674 812-1132): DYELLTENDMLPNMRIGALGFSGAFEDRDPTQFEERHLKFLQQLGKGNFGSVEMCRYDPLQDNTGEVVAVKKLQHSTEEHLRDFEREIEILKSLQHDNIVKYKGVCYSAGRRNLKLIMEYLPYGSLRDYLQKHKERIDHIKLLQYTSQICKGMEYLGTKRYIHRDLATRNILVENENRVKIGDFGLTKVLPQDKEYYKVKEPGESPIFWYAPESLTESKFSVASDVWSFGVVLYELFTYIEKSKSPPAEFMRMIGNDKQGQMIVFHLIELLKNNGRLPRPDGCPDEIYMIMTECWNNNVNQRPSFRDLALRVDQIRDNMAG
Test: JAK2 inhibition (Table 4)
Assay type: biochemical
Details: read-out: JAK2 Ki
experimental.readout: pKi
FYI, pKi means -log10 of a concentration in mol per litre.

| compound | experimental.readout | assay.value |
| --- | --- | --- |
| CC(=O)N1CCC(N[C@H]2CC[C@H](n3cnc4cnc5[nH]ccc5c43)CC2)CC1 | pKi | 6.56 |
| CCN1CCC(n2c(C)nc3cnc4[nH]ccc4c32)C(F)(F)C1 (racemic) | pKi | 8.34 |
| O=C(Cc1nc2cnc3[nH]ccc3c2n1C1CCN(Cc2ccccc2)CC1)NC1CCCC1 | pKi | 7.79 |

Now, please, on to the next compound.
The compound listed as `CC(C)(C)OC(=O)N1CCC[C@@H](n2cnc3cnc4[nH]ccc4c32)C1` shows pKi equal to 7.72

Every entry's value here was drawn from patent US8461328B2.
